testedSystem: Russell's viper venom factor X activator (RVV-X) (UniProt Q7LZ61;Q4PRD1;Q4PRD2 Q7LZ61:189-619,Q4PRD1:24-146,Q4PRD2:25-158)
protocolText: EMSA
testSettings: tags: Haematologic Technologies
endpointLabel: pKd
In textbook form, pKd equals minus log to base ten of the concentration in mol/L.

Query string: Identify measured pKd corresponding to RNA132 (ssRNA) RNA: GGGAGGGAAUCAGUGAAUGCUUAUACAUCCCUCCUUGAGCAGUCGAUUAGUUUCGACAGGAGGCUCAC
Result string: 8.24

Where these numbers come from: patent US8324357
